target: His6-EGFP-KRIT1(WT) FERM domain (417-736) (human, UniProt O00522 417-736); experiment: flow cytometry on beads
Sequence (O00522 417-736): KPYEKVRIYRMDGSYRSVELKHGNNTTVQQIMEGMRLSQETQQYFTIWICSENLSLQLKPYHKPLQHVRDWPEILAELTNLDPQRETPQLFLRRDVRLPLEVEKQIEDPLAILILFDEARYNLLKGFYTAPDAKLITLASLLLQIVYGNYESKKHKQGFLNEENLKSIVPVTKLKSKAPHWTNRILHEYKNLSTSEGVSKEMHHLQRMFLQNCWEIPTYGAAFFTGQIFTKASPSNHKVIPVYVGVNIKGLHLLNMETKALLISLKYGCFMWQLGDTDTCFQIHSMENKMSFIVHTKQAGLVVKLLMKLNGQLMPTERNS
reported_property: IC50

binder	recorded_measurement
SRRRDYF (peptide, UniProt Q9ULI3 1375-1381, looked up) [non-biotinylated HEG1 7-mer peptide (residues 1375-1381)]	0.41 µM

Taken from paper doi:10.1101/744821.
